This listing pairs compounds with measured melting point.

Here's what some known entries look like.
Compound: Cc1cccc(-c2ccc3nc(-c4ccc(Cl)cc4)cn3c2)c1
melting point: 145 to 147 °C
--
Compound: CC(O)(CO)c1cccc(-c2ccc3nc(-c4ccc(Cl)cc4)cn3c2)c1 (stereo not drawn)
melting point: 192 to 194 °C
--
Compound: N#Cc1cccc(-c2ccc3nc(-c4ccc(Cl)cc4)cn3c2)c1
melting point: 195 to 197 °C

Need melting point, item "OC1(c2cccc(-c3ccc4nc(-c5ccc(Cl)cc5)cn4c3)c2)CCOCC1"
224 to 225 °C

One more compound: "CNC(=O)c1cccc(-c2ccc3nc(-c4ccc(Cl)cc4)cn3c2)c1"
225 to 227 °C

----------
Target: NURR1/NOT nuclear receptor (Homo sapiens, UniProt P43354)
Sequence (P43354 whole entry, the tested form may be a part): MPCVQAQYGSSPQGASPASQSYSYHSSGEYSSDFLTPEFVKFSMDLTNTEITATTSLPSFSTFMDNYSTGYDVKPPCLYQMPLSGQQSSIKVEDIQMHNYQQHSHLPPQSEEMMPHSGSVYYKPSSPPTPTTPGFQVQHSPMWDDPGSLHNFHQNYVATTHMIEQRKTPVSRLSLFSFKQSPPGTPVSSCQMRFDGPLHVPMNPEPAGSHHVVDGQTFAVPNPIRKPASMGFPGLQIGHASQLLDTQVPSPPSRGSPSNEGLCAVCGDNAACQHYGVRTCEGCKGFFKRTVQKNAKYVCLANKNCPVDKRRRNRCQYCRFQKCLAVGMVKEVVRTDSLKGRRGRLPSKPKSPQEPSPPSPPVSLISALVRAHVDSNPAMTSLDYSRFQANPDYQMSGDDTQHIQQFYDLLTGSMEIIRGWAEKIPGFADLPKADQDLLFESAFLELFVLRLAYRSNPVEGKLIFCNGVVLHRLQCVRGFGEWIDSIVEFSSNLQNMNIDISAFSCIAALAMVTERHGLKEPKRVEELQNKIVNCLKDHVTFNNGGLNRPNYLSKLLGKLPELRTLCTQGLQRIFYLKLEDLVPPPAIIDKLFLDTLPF
Test: Gal4 reporter gene assay (EC50 / Emax Gal4)
Assay type: cell-based
Details: Table 2, alkyl or aryl groups on the carbinol; read-out: EC50 Gal4 t
pEC50: −log10 of the molar value.
Metric: pEC50

Tell me the measured pEC50 of CC(C)CC(O)c1cccc(-c2ccc3nc(-c4ccc(Cl)cc4)cn3c2)c1 (stereo not shown) , please.
< 5.52

----------
Assay: Plasma and heart concentrations after 5-min i.v. administration in anesthetized mongrel dogs
Type: in vivo
Settings: plasma, iv, dog, 10 mg/kg 5-min i.v., sampling time 60 min, read-out: Total plasma concentration
Metric: concentration at 60 min (µM)
All answers are understood in µM, so give the number only.

What measured concentration at 60 min goes with "CC(C)(O)c1cccc(-c2ccc3nc(-c4ccc(Cl)cc4)cn3c2)c1" ?
27.8

----------
Test: Plasma and heart concentrations after 5-min i.v. administration in anesthetized mongrel dogs
Format: in vivo
Conditions: plasma, iv, dog, 10 mg/kg 5-min i.v., sampling time 10 min, mean ± SD, n = 3, read-out: Total plasma concentration
Procedure: Cpd 38 was dissolved in a 75% PEG400 aqueous solution and administered to dogs (n = 3) at 10 mg/kg as a single 5-min intravenous infusion under a volume of 0.5 mL/kg. Control animals (n = 3) received the vehicle only, under the same experimental conditions. […] Analysis of samples was performed using an exploratory LC-MS-MS assay method. Plasma (LOQ of 2 ng/mL) and tissue (LOQ of 3 ng/g) concentrations of Cpd 38 were determined.
Metric: concentration at 10 min (ng/mL)
The answer is to be given in ng/mL; state only the numeric part.

Bench note: what concentration at 10 min did CC(C)(O)c1cccc(-c2ccc3nc(-c4ccc(Cl)cc4)cn3c2)c1 [Cpd 38] show?
23400

----------
Quick list: melting point per entry.

Below, each entry is followed by its recorded melting point result.
Compound: CCN(CC)C(=O)c1cccc(-c2ccc3nc(-c4ccc(Cl)cc4)cn3c2)c1 [Cpd S9]
melting point: 162 to 164 °C

Compound: NC(=O)c1cccc(-c2ccc3nc(-c4ccc(Cl)cc4)cn3c2)c1 [Cpd S7]
melting point: 246 to 248 °C

Compound: COCc1cccc(-c2ccc3nc(-c4ccc(Cl)cc4)cn3c2)c1 [Cpd S2]
melting point: 135 to 137 °C

Given the compound CN(C)Cc1cccc(-c2ccc3nc(-c4ccc(Cl)cc4)cn3c2)c1 [Cpd S3] , what is its reported melting point?
290 to 292 °C
